B1: library; numbered along this chain (parent)
chain: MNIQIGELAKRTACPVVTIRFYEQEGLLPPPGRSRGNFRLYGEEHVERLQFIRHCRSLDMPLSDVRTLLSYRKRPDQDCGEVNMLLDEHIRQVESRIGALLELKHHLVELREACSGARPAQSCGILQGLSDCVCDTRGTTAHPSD

variants of: B1; assay: sfGFP reporter fluorescence (15 h) (µM FITC); higher = higher leak; settings: library round: Round 1; ligand: none
REPORTED ENDPOINT: sfGFP reporter fluorescence
Output: the number by itself.

Answered examples (5):
>>> assay_value("N83T L107E")
0.0668
>>> assay_value("N83I D131S")
0.063
>>> assay_value("P61N D131C")
0.108
>>> assay_value("P61D D64K")
0.168
>>> assay_value("K104V R111L")
0.0656

Query: Give the measured sfGFP reporter fluorescence for N83T K104V
Response: 0.0623
